Just for reference, paper PMC7874386 is where these values come from.

Biological target: 5FW LecA (Pseudomonas aeruginosa, UniProt Q05097)
Construct: made in house; host or cells: Escherichia coli BL21 (DE3), plasmid pET25pa1l, grown with 5-fluoroindole
Sequence (Q05097 2-122): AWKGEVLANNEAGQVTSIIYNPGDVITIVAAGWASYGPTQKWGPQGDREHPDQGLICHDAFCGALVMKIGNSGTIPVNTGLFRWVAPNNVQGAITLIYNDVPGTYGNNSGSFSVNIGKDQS
Assay: PrOF NMR titration of ligands to 5FW LecA (W42 peak intensity)
Assay type: binding
Conditions: 100 μM apo 5FW LecA, MES pH 6, 310 K, one-site-binding model, three independent titrations; listed as Ca2+; read-out: Kd (PrOF NMR, Ca2+ titration)
Description: All experiments were conducted on Bruker Ascend™700 (AvanceIII HD) spectrometer equipped with a 5 mm TCI700 CryoProbe™ in 3 mm tubes (Norell S-3-800-7) with following parameters: time domain of 1972, relaxation delay 1 s, acquisition time of 0.15 s, spectral width of 10 p.p.m. and 1024 scans resulting in measurement time of 20 minutes. The decreasing intensity of the unbound W42 in 5FW LecA was followed to determine Kd values of ligands. […]
Readout Name: pKd
pKd here: minus log base 10 of the concentration, concentration in moles per litre.

## Task Entry under review: [Ca+2] [Ca^2+, calcium (II) ion] . Reported pKd?
## Result 4.33
